target: HTRA2, O43464; assay: holdup assay; parameters: key: below the threshold = too weak to quantify, mostly under pKd 3.1 to 4; conditions: plain residues with an end cap or a label only (N-terminal biotin on a linker: ado-ado)
Sequence (O43464 355-458): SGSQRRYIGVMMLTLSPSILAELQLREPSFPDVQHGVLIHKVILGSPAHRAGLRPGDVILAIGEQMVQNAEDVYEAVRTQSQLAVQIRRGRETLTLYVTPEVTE
recorded.endpoint: pKd

Observe how each entry below is paired with its result.
LPAHHNATRL [SLC34A1, Q06495;Q06495-1]
below the threshold
GQEEQVTTRL [TRPC5, Q9UL62]
below the threshold
TSQESEDTYL [TBC1D10A, Q9BXI6]
below the threshold
TASPAKETSF [SLC2A7, Q6PXP3]
below the threshold
SSALYGESDL [ACTN2, P35609]
below the threshold
LGRSTPQSEV [DGKH, Q86XP1]
below the threshold
HLRARKSEWV [GJD4, Q96KN9]
3.94

Would you kindly look at the next entry?
stdin: Value lookup for pKd; key = SNAGNTATKA [NOSTRIN, Q8IVI9]
stdout: below the threshold

All values here come from paper PMC9482650.
